Values from patent US20040146519A1

molecular target: HLA-B*5101 (human); experiment: inhibition of 125I probe peptide, purified HLA; details: remark: other sources report otherwise
ATTRIBUTE MEASURED: pIC50
Kindly note that pIC50 refers to -log10 of the concentration in mol/L and answer with the value alone.

// IPWQRLLLTI [CEA.13.I10] : pIC50 value = 7.72
